Reported collision cross section in nitrogen values for a set of compounds
# Measurement protocol: collision cross section in nitrogen (drift tube, single-field); higher = larger gas-phase ion size;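 further: chemical standards at 10 µM analysed by drift tube IMS-QTOF MS in about 3.95 torr nitrogen, mean of duplicate injections differing ≤1%, mass error below 10 ppm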
# Particulars: ion type: [M+H]; ion source: ESI; ion mode: Positive
Answer in Å², number only, no unit symbol.

Consider the reported collision cross section in nitrogen for these compounds:
>>> df
                                   compound  meas_value
0                           CCCCNC(=O)NCCCC         146
1  CCN(Cc1cccc(S(=O)(=O)O)c1)c1ccccc1 [3-((Ethylphenylamino)methyl)benzenesulfonic acid]       161.1
2  COc1cc2c(c(OC)c1OC)-c1ccc(OC)c(=O)cc1[C@@H](NC(C)=O)CC2       195.9

Turning to the following compound.
Need collision cross section in nitrogen, item CCCC1COC(Cn2cncn2)(c2ccc(Cl)cc2Cl)O1 (centres undefined)
179.8

---

# Measurement protocol: collision cross section in nitrogen (drift tube, single-field); higher = larger gas-phase ion size
# Particulars: ion type: [M+Na]; ion source: ESI; ion mode: Positive
Counter-ions that a name gives are not always drawn.
A collection of compounds and their measured collision cross section in nitrogen
The reply should contain only the number, in Å².

Here is how some compounds turned out for collision cross section in nitrogen.
>>> print(df.to_string())
                                   compound                           value_kind  units_text  meas_value
0  CC(Cl)COP(=O)(OCC(C)Cl)OCC(C)Cl (centres undefined) [Tris(2-chloropropyl) phosphate]  collision cross section in nitrogen          Å²       171.4
1  c1ccc(C(O[C@@H]2CCCN(CCc3ccc4c(c3)OCO4)C2)c2ccccc2)cc1  collision cross section in nitrogen          Å²       195.9
2  CS(=O)(=O)OCCOS(C)(=O)=O [Ethylene dimethanesulfonate]  collision cross section in nitrogen          Å²       144.8
3            CCOC(=O)Cn1c(=O)sc2cccc(Cl)c21  collision cross section in nitrogen          Å²       165.4

Requested read-out: collision cross section in nitrogen. Entry: COc1cc(OC)nc(Sc2cccc(Cl)c2C(=O)O)n1 [Pyrithiobac sodium]
173.5

Entry CCCCC(CC)COC(=O)/C=C\C(=O)OCC(CC)CCCC (centres undefined) [Bis(2-ethylhexyl) maleate] : reported collision cross section in nitrogen = ?
207.2

Quick one: collision cross section in nitrogen of `CCCCOC(=O)[C@@H](C)Oc1ccc(Oc2ccc(C#N)cc2F)cc1` ?
191.2

Find the recorded collision cross section in nitrogen belonging to COP(=O)(OC)C(O)C(Cl)(Cl)Cl (centres undefined) and report it.
151.7

Name the reported collision cross section in nitrogen value associated with the compound `COc1ccc(C(=O)Nc2nc3ccccc3c(NCc3ccccc3)c2C#N)cc1`
206.2

---

# Measurement protocol: collision cross section in nitrogen (drift tube, single-field); higher = larger gas-phase ion size
# Particulars: ion type: [M-H]; ion source: ESI; ion mode: Negative
Value kind: collision cross section in nitrogen (Å²)
# output: bare number, implied unit Å²

Example entries and their recorded answers appear below.
In [3]: df
Out[3]:
                                   compound  meas_value
0      O=C(NC(=O)c1c(F)cccc1F)Nc1ccc(Cl)cc1       169.5
1  COc1cc(NC(=O)CC(C)=O)c(OC)cc1Cl [4'-Chloro-2',5'-dimethoxyacetoacetanilide]       161.1
2                    Cc1ccc(C(C)(C)C)c(O)c1       138.7
3     O=[N+]([O-])c1ccc(O)c([N+](=O)[O-])c1       127.8
4  CCOc1nc(F)cc2nc(S(=O)(=O)Nc3c(Cl)cccc3Cl)nn12         183
5                       CC(C)(C)c1cccc(O)c1       136.9

What does the data say about its collision cross section in nitrogen? Entry: `N[C@H](Cc1c[nH]c2ccccc12)C(=O)O`
151.5

Data request, read-out collision cross section in nitrogen, for `c1ccc2[nH]ccc2c1`
119.5

Name the reported collision cross section in nitrogen value associated with the compound `O=C(O)c1cccc(N(Cc2cccnc2)c2ccc(OC(F)F)c(OC(F)F)c2)c1`
202.6

Look at this compound and give its reported collision cross section in nitrogen. `CCCCCCCc1ccc(O)cc1`
157.1

Param item = `CC(c1cc(C(C)(C)C)cc(C(C)(C)C)c1O)c1cc(C(C)(C)C)cc(C(C)(C)C)c1O` ; retrieve measured collision cross section in nitrogen.
224.4

I would be grateful if you could share the reported collision cross section in nitrogen for `O=C1CC2(CCCC2)CC(=O)N1CCCCN1CCN(c2ncccn2)CC1` .
202.9

Entry Cc1ccc(S(=O)(=O)O)cc1 [Sodium 4-methylbenzenesulfonate] : reported collision cross section in nitrogen = ?
135.2

Name the reported collision cross section in nitrogen value associated with the compound `CC(=O)[C@H]1[C@H](C#N)C[C@H]2[C@@H]3CC=C4C[C@@H](O)CC[C@]4(C)[C@H]3CC[C@@]21C`
189.5

Any idea what its collision cross section in nitrogen is? The compound is O=C(O)CNc1ccccc1 [Potassium anilinoacetate]
134.6

Return reported collision cross section in nitrogen; argument: `Nc1nc(N)c2nc(-c3ccccc3)c(N)nc2n1`
157.7

Query (compound): Oc1ccc2ccc3cccc4ccc1c2c34 [1-Hydroxypyrene] ; field requested: collision cross section in nitrogen
146.2

Could you share which collision cross section in nitrogen value was measured for `O=S1(=O)OC(c2ccc(O)cc2)(c2ccc(O)cc2)c2ccccc21` ?
182
